Origin of measurements: patent US11702418B2

Could you please report measured Ki for the items listed next?
experimental_system: recombinant human SOS1 polypeptide (amino acids 560-1049) (Homo sapiens (Human))
assay_name: biochemical
Assay type: binding
run_conditions: read-out: Ki, Inhibition of Labeled Tracer Binding to SOS1
Where a name gives a salt, the structure may show the parent alone.
Report only the number, with the unit nM understood.

Lookup: Data request, read-out Ki, for Cc1c([C@@H](C)Nc2nnc(C)c3ccc(N4CCNC[C@H](F)C4)cc23)cccc1C(F)(F)F [Example 10-62, Hydrochloride salt]
Found: 0.9

Lookup: If you can, please state the reported Ki value of `Cc1cc(C#N)cc([C@@H](C)Nc2nnc(C)c3ccc(N4CCOCC4)cc23)c1` .
Found: 13.7

Lookup: // lookup Ki for Cc1c([C@@H](C)Nc2nnc(C)c3ccc(OC[C@@H]4CCCN4C)cc23)cccc1C(F)(F)F [Example 10-24, hydrochloride salt]
Found: 1.34

Lookup: Tell me the measured Ki of Cc1c(C#N)cccc1[C@@H](C)Nc1nnc(C)c2ccc(N3CC(N(C)C)C3)cc12 [Example 10-75, Hydrochloride salt] , please.
Found: 6.51

Lookup: What Ki value was documented for this molecule, `Cc1c([C@@H](C)Nc2nnc(C)c3cc(F)c(N4CCOCC4)cc23)cccc1C(F)(F)F` ?
Found: 5.27

Lookup: Fill blank: measured Ki of the molecule Cc1c(C(F)F)cccc1[C@@H](C)Nc1nnc(C)c2ccc(N3CCOCC3)cc12 [Example 10-65, Hydrochloride salt] is ____.
Found: 0.95

Lookup: Which Ki reading was recorded for the molecule Cc1nnc(N[C@H](C)c2cccc(C(F)F)c2F)c2cc(N3CCN4CCOC[C@@H]4C3)ccc12 [Example 10-86, Formate salt] ?
Found: 1.51

Lookup: Given the molecule Cc1c([C@@H](C)Nc2nnc(C)c3ccc(N4CCNC[C@@H](F)C4)cc23)cccc1C(F)(F)F [Example 10-63, Hydrochloride salt] , what is its reported Ki?
Found: 0.54

Lookup: Name the recorded Ki for Cc1c([C@@H](C)Nc2nnc(C)c3ccc(N4C5CCC4CN(C)C5)cc23)cccc1C(F)(F)F [Example 10-28, hydrochloride salt] .
Found: 0.45

Lookup: Endpoint output: Ki of Cc1c([C@@H](C)Nc2nnc(C)c3ccc(N4CCC(C)(N(C)C)CC4)cc23)cccc1C(F)(F)F [Example 10-42, hydrochloride salt] . Value?
Found: 0.31

Lookup: Fill in: Ki of `Cc1c([C@@H](C)Nc2nnc(C)c3cc(F)c(N4CCNCC4)cc23)cccc1C(F)(F)F` is ___
Found: 0.98

Lookup: Which Ki value belongs to Cc1c([C@@H](C)Nc2nnc(C)c3ccc(N4CCC5(CCNCC5)C4=O)cc23)cccc1C(F)(F)F [Example 10-39, hydrochloride salt] ?
Found: 1.49

Lookup: What value of Ki has been recorded for this entry: Cc1c([C@@H](C)Nc2nnc(C)c3ccc(N4CCC(N5CCC(F)(F)C5)CC4)cc23)cccc1C(F)(F)F [Example 10-49, Formate salt]
Found: 0.56

----------
experimental_system: recombinant human SOS1 polypeptide (amino acids 560-1049) (Homo sapiens (Human))
assay_name: biochemical
Type: binding
quantity_name: Ki (nM)
Your answer should be a plain number; it is taken to be in nM.

Lookup: Which Ki value is on record for `Cc1nnc(N[C@H](C)c2cc(O)cc(C(F)(F)F)c2)c2cc(N3CCOCC3)ccc12` ?
Found: 1.67

Lookup: Which Ki reading was recorded for the compound `Cc1c([C@@H](C)Nc2nnc(C)c3ccc(N4CCOCC4)cc23)cc(N)cc1C(F)(F)F` ?
Found: 0.42

Lookup: Any idea what Ki was measured for `Cc1nnc(N[C@H](C)c2cc(N)cc(C(F)(F)F)n2)c2cc(N3CCOCC3)ccc12` ?
Found: 14.4

Lookup: Entry under review: `COc1c(C#N)cccc1[C@@H](C)Nc1nnc(C)c2cnc(N3CCOCC3)cc12` . Reported Ki?
Found: 4.33

----------
Hi there, I'd appreciate the recorded log10 of Ki for every entry that follows.
experimental_system: recombinant human SOS1 polypeptide (amino acids 560-1049) (Homo sapiens (Human), UniProt Q07889)
Sequence (Q07889 560-1049): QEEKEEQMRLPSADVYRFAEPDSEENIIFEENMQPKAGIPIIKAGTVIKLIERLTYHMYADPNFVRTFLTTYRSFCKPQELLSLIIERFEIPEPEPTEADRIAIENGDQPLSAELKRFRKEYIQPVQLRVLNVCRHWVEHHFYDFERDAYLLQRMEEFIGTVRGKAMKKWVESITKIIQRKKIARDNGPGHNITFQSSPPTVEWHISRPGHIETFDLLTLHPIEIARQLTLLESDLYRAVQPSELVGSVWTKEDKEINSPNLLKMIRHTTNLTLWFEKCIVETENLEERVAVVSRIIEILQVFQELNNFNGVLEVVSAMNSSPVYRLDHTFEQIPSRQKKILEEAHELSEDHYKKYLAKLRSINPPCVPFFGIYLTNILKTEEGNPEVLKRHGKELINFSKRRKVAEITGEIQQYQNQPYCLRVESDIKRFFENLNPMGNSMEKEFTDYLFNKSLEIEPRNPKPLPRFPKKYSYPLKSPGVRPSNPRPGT
assay_name: biochemical
Type: binding
run_conditions: HTRF displacement, Cy5 labelled tracer, Morrison equation for competitive binding; read-out: Ki, Inhibition of Labeled Tracer Binding to SOS1
# log10 transformed; quantity=Ki; unit=nM

Lookup: Given the compound `Cc1c(C#N)cccc1[C@@H](C)Nc1nnc(C)c2cnc(N3CCC(N(C)C)CC3)cc12` , what is its reported log10 of Ki?
Found: 0.18

Lookup: // returns reported log10 of Ki for input `Cc1c(C#N)cccc1[C@@H](C)Nc1nnc(C)c2cnc(N3CCC(C)(N(C)C)CC3)cc12`
Found: -0.04

Lookup: So what does the record say about log10 of Ki for `Cc1c(C#N)cccc1[C@@H](C)Nc1nnc(C)c2cnc(N3CCN(C)CC3)cc12` ?
Found: 0.06

Lookup: Given the compound `Cc1c(C#N)cccc1[C@@H](C)Nc1nnc(C)c2cnc(N3CC4CC(C3)O4)cc12` , what is its reported log10 of Ki?
Found: 0.02

Lookup: Bench note: what log10 of Ki did `Cc1c([C@@H](C)Nc2nnc(C)c3ccc(N4CCN(C(=O)C5CC5)CC4)cc23)cccc1C(F)(F)F` show?
Found: 0.96

Lookup: Tell me the measured log10 of Ki of `Cc1cccc([C@@H](C)Nc2nnc(C)c3cnc(N4CC5CC(C4)O5)cc23)c1F` , please.
Found: 0.85

Lookup: What does the record list as log10 of Ki for `CNCc1nnc(N[C@H](C)c2cccc(C#N)c2C)c2cc(N3C[C@H]4C[C@@H]3CO4)ncc12` ?
Found: 1.16

Lookup: Recorded log10 of Ki for `CNCc1ccccc1-c1ccc([C@@H](C)Nc2nnc(C)c3ccc(N4CCOCC4)cc23)s1` , please?
Found: -1.70

Lookup: Which measured log10 of Ki value corresponds to `Cc1nnc(N[C@H](C)c2cc(N)cc(C(F)(F)F)n2)c2cc(N3CC(C)(N(C)C)C3)ncc12` ?
Found: 2.03

Lookup: Form field: reported log10 of Ki of `CNCc1cccc([C@@H](C)Nc2nnc(C)c3cc(OC)c(OC)cc23)c1C`
Found: 2.59

Lookup: Please give the measured log10 of Ki for this compound: `Cc1c([C@@H](C)Nc2nnc(C)c3cnc(N4C[C@H]5C[C@@H]4CO5)cc23)cc(F)cc1C(F)(F)F`
Found: 0.42

Lookup: Would you mind telling me what log10 of Ki value was observed for `COc1cc2c(N[C@H](C)c3ccc(-c4ccccc4CN(C)C)s3)nnc(C(F)(F)F)c2cc1OC` ?
Found: 1.68

Lookup: Consider the compound `Cc1c([C@@H](C)Nc2nnc(C)c3ccc(N4CC(C)(N(C)C)C4)cc23)cccc1C(F)(F)F` and give its measured log10 of Ki.
Found: -0.11

Lookup: Look up log10 of Ki for this compound: `Cc1c(C#N)cccc1[C@@H](C)Nc1nnc(C)c2ccc(N3CCC(N4CCC4)CC3)cc12`
Found: -0.12

Lookup: Need log10 of Ki of `Cc1c([C@@H](C)Nc2nnc(C)c3ccc(N4C[C@@H]5CC[C@H]4CN5C)cc23)cccc1C(F)(F)F` , thanks.
Found: -0.46

Lookup: Look up log10 of Ki: `Cc1c([C@@H](C)Nc2nnc(C)c3ccc(N4CCN(C(=O)C5COC5)CC4)cc23)cccc1C(F)(F)F`
Found: -2.00

Lookup: I am curious: what log10 of Ki value has been reported for `Cc1nnc(N[C@H](C)c2cc(N)cc(C(F)(F)F)n2)c2cc(N3CC4(CCN(C)C4=O)C3)ncc12` ?
Found: 1.90

Lookup: Item `Cc1c([C@@H](C)Nc2nnc(C)c3ccc(OC4CCNCC4)cc23)cccc1C(F)(F)F` has what recorded log10 of Ki?
Found: -0.48

Lookup: # query: log10 of Ki of entry `Cc1c(C(F)F)cccc1[C@@H](C)Nc1nnc(C)c2cnc(N3CCN(c4cnn(C)c4)CC3)cc12`
Found: -0.33

Lookup: // query log10 of Ki value for entry `Cc1nnc(N[C@H](C)c2cc(N)cc(C(F)(F)F)c2)c2cc(O[C@H]3CCOC3)ccc12`
Found: 0.53

Lookup: Given `Cc1nnc(N[C@H](C)c2cccc(C(F)F)c2F)c2cc(N3CC(C)(N(C)C)C3)ncc12` , state its recorded log10 of Ki.
Found: 0.22

Lookup: Dear colleague, I am looking for the recorded log10 of Ki of the following compound: `Cc1c([C@@H](C)Nc2nnc(C)c3cnc(N4CC(C)(CO)C4)cc23)cccc1C(F)(F)F`
Found: -0.04

Lookup: Give the measured log10 of Ki of `Cc1nnc(N[C@H](C)c2cccc(C(F)(F)F)c2F)c2cc(N3CCNCC3)ncc12` .
Found: -0.14

Lookup: Any idea what log10 of Ki was measured for `CNCc1c(F)cccc1-c1ccc([C@@H](C)Nc2nnc(C)c3cnc(N4CCOCC4)cc23)s1` ?
Found: -0.54

Lookup: Fill in: log10 of Ki of `Cc1c(C#N)cc(F)cc1[C@@H](C)Nc1nnc(C)c2cnc(N3C[C@H]4C[C@@H]3CO4)cc12` is ___
Found: 1.04

Lookup: log10 of Ki lookup needed for `Cc1c(C#N)cccc1[C@@H](C)Nc1nnc(C)c2cnc(N3CC(C)(N4CCOCC4)C3)cc12` , thanks.
Found: 0.50

Lookup: Quick one: log10 of Ki of `Cc1c([C@@H](C)Nc2nnc(C)c3ccc(OC4COC4)cc23)cccc1C(F)(F)F` ?
Found: 2.28

Lookup: Field request: log10 of Ki | item: `Cc1nc2n(c1C)CCN(c1ccc3cnnc(N[C@H](C)c4cccc(C(F)(F)F)c4C)c3c1)C2`
Found: -0.77

Lookup: Name the recorded log10 of Ki for `Cc1c([C@@H](C)Nc2nnc(C)c3ccc(N4CCN(C(=O)[C@H]5CCOC5)CC4)cc23)cccc1C(F)(F)F` .
Found: -2.00

Lookup: # get_value(readout='log10 of Ki', item= `Cc1c([C@@H](C)Nc2nnc(CN(C)C)c3cnc(N4C[C@H]5C[C@@H]4CO5)cc23)cccc1C(F)(F)F` )
Found: 0.41
